# Assay Target: T1, human GFRα3 expressed with a C-terminal myc-myc-hexahistidine tag (human, UniProt O60609 32-374, biotinylated (sites not given) in ELISA format 2 and in the Octet cross-competition; not in SPR)
# T1 construct: also called hGFRα3-mmh; hGFRα3-mmH
# T1 sequence (O60609 other isoform, or with tags, fused parts or gaps limits assumed): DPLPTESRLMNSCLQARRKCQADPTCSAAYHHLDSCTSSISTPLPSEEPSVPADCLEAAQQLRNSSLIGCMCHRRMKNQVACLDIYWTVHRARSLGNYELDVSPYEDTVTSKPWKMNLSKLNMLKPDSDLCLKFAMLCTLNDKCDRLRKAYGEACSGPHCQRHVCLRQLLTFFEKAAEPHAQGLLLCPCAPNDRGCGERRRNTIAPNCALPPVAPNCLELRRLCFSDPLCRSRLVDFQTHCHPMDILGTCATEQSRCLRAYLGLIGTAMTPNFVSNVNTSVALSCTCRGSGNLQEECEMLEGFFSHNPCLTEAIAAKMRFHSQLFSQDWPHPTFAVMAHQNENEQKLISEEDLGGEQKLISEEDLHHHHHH
# Experimental Protocol: Octet RED384; 25 µg/mL first antibody on streptavidin-captured biotin-hGFRα3-mmH
Metric Name: Amount of Antibody 1 bound (nm)
Respond with the bare value in nm.

Could you tell me which Amount of Antibody 1 bound (nm) is on file for H4H2295S (antibody, human IgG4, V domains shown, human IgG4 Fc (H4H)) VH: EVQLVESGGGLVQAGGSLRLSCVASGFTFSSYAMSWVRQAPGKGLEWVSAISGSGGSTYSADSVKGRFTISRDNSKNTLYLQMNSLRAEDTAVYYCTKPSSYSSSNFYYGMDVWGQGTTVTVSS VL: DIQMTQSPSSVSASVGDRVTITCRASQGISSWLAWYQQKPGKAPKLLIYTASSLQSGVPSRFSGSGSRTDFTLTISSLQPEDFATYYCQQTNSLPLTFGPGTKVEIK ?
2.83

Could you tell me which Amount of Antibody 1 bound (nm) is on file for H4H2236N3 (antibody, human IgG4, V domains shown, human IgG4 Fc (H4H)) VH: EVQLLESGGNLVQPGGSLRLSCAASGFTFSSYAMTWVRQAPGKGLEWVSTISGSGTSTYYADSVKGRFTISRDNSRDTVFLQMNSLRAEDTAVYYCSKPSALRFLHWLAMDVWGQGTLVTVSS VL: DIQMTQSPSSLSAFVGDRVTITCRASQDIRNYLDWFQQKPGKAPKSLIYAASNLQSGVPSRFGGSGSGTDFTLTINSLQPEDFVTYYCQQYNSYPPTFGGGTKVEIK ?
2.64

Could you tell me which Amount of Antibody 1 bound (nm) is on file for H4H2342P (antibody, human IgG4, V domains shown, human IgG4 Fc (H4H)) VH: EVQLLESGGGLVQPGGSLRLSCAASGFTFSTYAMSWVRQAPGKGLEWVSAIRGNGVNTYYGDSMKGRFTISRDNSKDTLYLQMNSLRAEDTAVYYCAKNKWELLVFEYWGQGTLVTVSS VL: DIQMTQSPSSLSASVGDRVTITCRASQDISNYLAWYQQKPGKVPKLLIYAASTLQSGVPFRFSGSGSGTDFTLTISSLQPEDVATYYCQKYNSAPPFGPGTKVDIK ?
2.69

Could you tell me which Amount of Antibody 1 bound (nm) is on file for H4H2294S (antibody, human IgG4, V domains shown, human IgG4 Fc (H4H)) VH: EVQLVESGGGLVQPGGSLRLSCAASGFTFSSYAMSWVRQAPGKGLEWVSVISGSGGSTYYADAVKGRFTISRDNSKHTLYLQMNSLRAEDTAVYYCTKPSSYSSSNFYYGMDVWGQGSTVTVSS VL: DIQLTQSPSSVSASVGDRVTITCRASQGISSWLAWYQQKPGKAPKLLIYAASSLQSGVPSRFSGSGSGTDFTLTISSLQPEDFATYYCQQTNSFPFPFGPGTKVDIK ?
2.91

Could you tell me which Amount of Antibody 1 bound (nm) is on file for H4H2352S (antibody, human IgG4, V domains shown, human IgG4 Fc (H4H); also called H4H2352S-1) VH: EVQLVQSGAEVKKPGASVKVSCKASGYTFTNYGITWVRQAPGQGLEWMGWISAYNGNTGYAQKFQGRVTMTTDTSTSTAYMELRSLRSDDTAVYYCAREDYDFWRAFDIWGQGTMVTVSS VL: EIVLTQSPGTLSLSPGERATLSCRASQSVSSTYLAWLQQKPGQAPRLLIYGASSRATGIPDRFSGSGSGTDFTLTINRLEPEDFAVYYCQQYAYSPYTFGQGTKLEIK ?
2.74

Every entry's value here was drawn from patent US20140056903A1.
